- systemUnderTest: HTRA1, Q92743
- Sequence (Q92743 360-477): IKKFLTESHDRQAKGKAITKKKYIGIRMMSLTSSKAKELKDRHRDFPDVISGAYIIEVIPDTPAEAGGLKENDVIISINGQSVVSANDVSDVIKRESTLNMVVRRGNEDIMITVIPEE
- assayText: holdup assay
- Parameters: key: below the threshold = too weak to quantify, mostly under pKd 3.1 to 4
- conditionsUsed: plain residues with an end cap or a label only (N-terminal biotin on a linker: ado-ado)
valueKind: pKd

TETASVCTKV [SLC23A1, Q9UHI7]    3.73
GFGEERESIL [KIDINS220, Q9ULH0]    4.6

API: the following record is the query input.
Q. Entry QKNKDKEYYV [NRXN3_rs746444206, Q9Y4C0] needs its pKd filled in; supply it.
A. 5.32
